# EXPERIMENT NOTES: Oral bioavailability in man
# Assay type: ADME, organism-based
# MEASUREMENT CONTEXT: human, in vivo
ENDPOINT: bioavailability (%)
Dear colleague, please return just the value in %, with no unit written.

*Q* Which bioavailability value belongs to CN(CCOc1ccc(NS(C)(=O)=O)cc1)CCc1ccc(NS(C)(=O)=O)cc1 [DOFETILIDE] ?
*A* 100

---

Measured Cardiac depression of individual entries
# Organism: Cavia porcellus
# EXPERIMENT NOTES: The degree of cardiac depression produced by a concentration of 10 E-4 M was determined in guinea pig
# Format: functional

# MOLECULAR STRING, Cardiac depression
data = [
    ("CN(CCOc1ccc(C(F)(F)F)cc1)CCc1ccc(NS(C)(=O)=O)cc1.Cl", "30%"),
    ("CNC(=O)Nc1ccc(OCCN(C)CCc2ccc(NS(C)(=O)=O)cc2)cc1.Cl", "0%"),
    ("CN(CCOc1ccc(S(N)(=O)=O)cc1)CCc1ccc(NS(C)(=O)=O)cc1", "7%"),
]

Let's switch to this molecule now.
*Q* Recorded Cardiac depression of CN(CCOc1cccc(C(N)=O)c1)CCc1ccc(NS(C)(=O)=O)cc1 , please.
*A* 3%

---

# EXPERIMENT NOTES: Distribution coefficient at pH 7.4
# Assay type: physicochemical
# MEASUREMENT CONTEXT: octanol/water
ENDPOINT: logD
Lab note: record just the number, no unit beside it.

*Q* Please give the measured logD for this compound: CN(CCOc1ccc(NS(C)(=O)=O)cc1)CCc1ccc(NS(C)(=O)=O)cc1 [DOFETILIDE]
*A* 0.96

---

# EXPERIMENT NOTES: Oral bioavailability in dog
# Type: ADME, organism-based, Canis lupus familiaris
# MEASUREMENT CONTEXT: in vivo
ENDPOINT: bioavailability (%)
The response must be a number in % with no trailing unit.

*Q* Request the reported bioavailability associated with CN(CCOc1ccc(NS(C)(=O)=O)cc1)CCc1ccc(NS(C)(=O)=O)cc1 [DOFETILIDE]
*A* 72

---

# Species on record: Cavia porcellus
# EXPERIMENT NOTES: The degree of cardiac depression produced by a concentration of 10 E-4 M was determined in guinea pig
# Type: functional
ENDPOINT: Cardiac depression (%)
Entry rule: numbers only, all in %.

Would you please look over these solved cases?
# COMPOUND, UNITS OF MEASURE, Cardiac depression
rows = [
    ("CN(CCOc1ccc(NS(C)(=O)=O)cc1)CCc1ccc(NS(C)(=O)=O)cc1 [DOFETILIDE]", "%", 0),
    ("CCN(CC)C(=O)c1ccc(OCCN(C)CCc2ccc(NS(C)(=O)=O)cc2)cc1", "%", 9),
    ("CN(CCOc1ccc(C(=O)N2CCOCC2)cc1)CCc1ccc(NS(C)(=O)=O)cc1.Cl", "%", 15),
    ("CN(CCOC(c1ccccc1)c1ccc(NS(C)(=O)=O)cc1)CCc1ccc(NS(C)(=O)=O)cc1 (stereo not given)", "%", 35),
    ("CN(CCCc1ccc(NS(C)(=O)=O)cc1)CCc1ccc(NS(C)(=O)=O)cc1", "%", 23),
    ("CN(CCOc1ccccc1NS(C)(=O)=O)CCc1ccc(NS(C)(=O)=O)cc1.Cl", "%", 19),
]

*Q* Can you share its Cardiac depression? I mean this compound: CNC(=O)c1ccc(OCCN(C)CCc2ccc(NS(C)(=O)=O)cc2)cc1.Cl
*A* 5

*Q* # input compound: CN(CCOc1ccc(NS(C)(=O)=O)cc1Cl)CCc1ccc(NS(C)(=O)=O)cc1 ; wanted: its Cardiac depression
*A* 16

*Q* Please look up its Cardiac depression: Cc1ccc(OCCN(C)CCc2ccc(NS(C)(=O)=O)cc2)c(C(N)=O)c1.Cl
*A* 22

*Q* Please give the measured Cardiac depression for this compound: COC(=O)c1ccc(OCCN(C)CCc2ccc(NS(C)(=O)=O)cc2)cc1
*A* 47

*Q* Please look up its Cardiac depression: CN(CCOc1cccc(NS(C)(=O)=O)c1)CCc1ccc(NS(C)(=O)=O)cc1
*A* 9

*Q* Form field: reported Cardiac depression of CN(CCSc1ccc(NS(C)(=O)=O)cc1)CCc1ccc(NS(C)(=O)=O)cc1
*A* 21

*Q* Requested field: Cardiac depression. Item: CN(CCOc1ccc(C(N)=O)cc1)CCc1ccc(NS(C)(=O)=O)cc1
*A* 7

*Q* Reported Cardiac depression, compound CN(CCOc1ccc(CC(N)=O)cc1)CCc1ccc(NS(C)(=O)=O)cc1 : ____
*A* 7

*Q* Entry CN(CCCCOc1ccc(NS(C)(=O)=O)cc1)CCc1ccc(NS(C)(=O)=O)cc1.Cl has what Cardiac depression?
*A* 23

*Q* I have this compound here, CN(CCc1ccc(NS(C)(=O)=O)cc1)CCc1ccc(NS(C)(=O)=O)cc1 , and I need its recorded Cardiac depression.
*A* 20

*Q* Which Cardiac depression is listed for Cc1ccc(NS(C)(=O)=O)c(OCCN(C)CCc2ccc(NS(C)(=O)=O)cc2)c1.Cl ?
*A* 24

*Q* I have this compound here, CC(C)NCC(O)c1ccc(NS(C)(=O)=O)cc1 (stereo not given) , and I need its recorded Cardiac depression.
*A* 5

*Q* Look at this compound and give its reported Cardiac depression. CN(CCCOc1ccc(NS(C)(=O)=O)cc1)CCc1ccc(NS(C)(=O)=O)cc1.Cl
*A* 44

*Q* Give the measured Cardiac depression of CN(CCCCc1ccc(NS(C)(=O)=O)cc1)CCc1ccc(NS(C)(=O)=O)cc1 .
*A* 32
